Provenance of the data: patent US8124382B2

# System: K. pneumoniae BJ-7
# ASSAY_DETAILS: in vitro antimicrobial susceptibility test (MIC, CLSI standard method)
# Format: cell-based, Klebsiella pneumoniae
# CONDITION_DESCRIPTION: strain BJ-7 (K. pneumoniae); CLA at fixed concentration 4 μg/ml in combinations
READOUT: The in vitro antimicrobial susceptibility test/MIC (µg/mL)
Please respond with the number in µg/mL and leave the unit unwritten.

• CO/N=C(\C(=O)N[C@@H]1C(=O)N2C(C(=O)O)=C(COC(C)=O)CS[C@H]12)c1csc(N)n1 = 64
• CO[C@@]1(NC(=O)Cc2cccs2)C(=O)N2C(C(=O)O)=C(COC(N)=O)CS[C@@H]21 = 8

Req: Quote The in vitro antimicrobial susceptibility test/MIC with test system K. pneumoniae BJ-7 for CC(C)(O/N=C(\C(=O)N[C@@H]1C(=O)N2C(C(=O)[O-])=C(C[n+]3ccccc3)CS[C@H]12)c1csc(N)n1)C(=O)O
Resp: 32
